target: human adenosine A1 receptor (Homo sapiens, UniProt P30542); assay: Adenosine A1 Receptor Functional Assay (A1GAL2); conditions: CHO-K1 cells overexpressing human A1 receptor, cAMP inducible beta-galactosidase reporter, 4 nM r-PIA/1 uM Forskolin agonist challenge
Sequence (P30542 whole entry): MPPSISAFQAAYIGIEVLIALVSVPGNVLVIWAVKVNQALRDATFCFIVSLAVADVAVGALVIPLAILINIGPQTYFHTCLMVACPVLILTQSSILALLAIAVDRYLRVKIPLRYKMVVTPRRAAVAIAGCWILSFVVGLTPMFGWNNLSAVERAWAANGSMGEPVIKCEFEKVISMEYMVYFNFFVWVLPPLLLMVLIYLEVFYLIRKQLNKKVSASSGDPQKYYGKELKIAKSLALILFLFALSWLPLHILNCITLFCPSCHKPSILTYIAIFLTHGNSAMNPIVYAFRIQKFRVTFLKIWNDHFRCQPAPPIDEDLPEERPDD
pIC50: −log10 of the molar value.
MEASURED_METRIC: pIC50

Recorded pIC50, per entry:
SMILES_CODE | TARGET_SYSTEM | pIC50
Nc1nc(-c2ccccc2)c2c(n1)-c1c(cccc1N1CCN(c3cccnc3)CC1)C2=O | human adenosine A1 receptor (Homo sapiens, UniProt P30542) | 7.51
Nc1nc(-c2ccccc2)c2c(n1)-c1c(cccc1N1CCN(c3ccccn3)CC1)C2=O | human adenosine A1 receptor (Homo sapiens, UniProt P30542) | 6.70

A: Nc1nc(-c2ccccc2)c2c(n1)-c1c(cccc1N1CCN(c3ccc(C(F)(F)F)cc3)CC1)C2=O
B: N#Cc1ccc(N2CCN(c3cccc4c3-c3nc(N)nc(-c5ccccc5)c3C4=O)CC2)nc1
## Task In terms of reported pIC50, does A or B have the smaller number? Pick one and reply with its label.
## Result A
(A: 5.21, B: 5.68)
